Target or system RAF proto-oncogene serine/threonine-protein kinase (Homo sapiens); metric pIC50; compiled from varied reports.
pIC50: −log10 of the molar value.

INSERT INTO assay_data (mol, target_or_test_system, observed) VALUES
  ('COc1ccnc2[nH]cc(C(=O)c3c(F)ccc(NS(C)(=O)=O)c3F)c12', 'RAF proto-oncogene serine/threonine-protein kinase (Homo sapiens)', '≥ 5.00');

Quick check: pIC50 on RAF proto-oncogene serine/threonine-protein kinase (Homo sapiens), item CN(C)S(=O)(=O)Nc1ccc(F)c(C(=O)c2c[nH]c3ncc(Br)cc23)c1F ?
≥ 5.00

Quick check: pIC50 on RAF proto-oncogene serine/threonine-protein kinase (Homo sapiens), item Cc1c(O)cccc1C(=O)c1c[nH]c2ncc(-c3ccccc3)cc12 ?
≥ 5.00

Quick check: pIC50 on RAF proto-oncogene serine/threonine-protein kinase (Homo sapiens), item CC(C)S(=O)(=O)Nc1ccc(F)c(C(=O)c2c[nH]c3nccc(C#N)c23)c1F ?
≥ 5.00

Quick check: pIC50 on RAF proto-oncogene serine/threonine-protein kinase (Homo sapiens), item O=C(c1cc(O)ccc1F)c1c[nH]c2nccc(Cl)c12 ?
≥ 5.00

Quick check: pIC50 on RAF proto-oncogene serine/threonine-protein kinase (Homo sapiens), item CCCS(=O)(=O)Nc1ccc(F)c(C(=O)c2c[nH]c3ncc(OC)cc23)c1 ?
≥ 5.00

Quick check: pIC50 on RAF proto-oncogene serine/threonine-protein kinase (Homo sapiens), item O=C(c1c(F)ccc(NS(=O)(=O)c2cccnc2)c1F)c1c[nH]c2ncncc12 ?
≥ 5.00

Quick check: pIC50 on RAF proto-oncogene serine/threonine-protein kinase (Homo sapiens), item COc1ccc(C(=O)c2c[nH]c3ncc(-c4cccc(/C=C/C(=O)O)c4)cc23)c(Cl)c1 ?
≥ 5.00

Quick check: pIC50 on RAF proto-oncogene serine/threonine-protein kinase (Homo sapiens), item COc1cccc(Cc2c[nH]c3ncc(-c4cccnc4)cc23)c1F ?
≥ 5.00

###

pIC50: −log10 of the molar value.
Target or system RAF proto-oncogene serine/threonine-protein kinase (Homo sapiens, UniProt P04049); metric pIC50; compiled from varied reports.

Report pIC50 for N#Cc1cnc2[nH]cc(C(=O)c3cccc(NS(=O)(=O)c4ccc(F)cc4)c3F)c2c1 please.
≥ 5.00

Report pIC50 for O=C(c1c(F)ccc(NS(=O)(=O)N2CCCCC2)c1F)c1c[nH]c2ncc(Cl)cc12 please.
≥ 5.00

Report pIC50 for Cc1cnc2[nH]cc(C(=O)c3c(F)ccc(NS(=O)(=O)CC(F)(F)F)c3F)c2c1 please.
≥ 5.00

Report pIC50 for O=C(c1c(F)ccc(NS(=O)(=O)c2cccc(F)c2)c1F)c1c[nH]c2ncc(Cl)cc12 please.
≥ 5.00

Report pIC50 for N#Cc1ccnc2[nH]cc(C(=O)c3c(F)ccc(NS(=O)(=O)c4ccc(C(F)(F)F)cc4)c3F)c12 please.
> 7.00

Report pIC50 for C#Cc1cnc2[nH]cc(C(=O)c3c(F)ccc(NS(=O)(=O)CCC)c3F)c2c1 please.
> 8.00

Report pIC50 for CCCS(=O)(=O)Nc1ccc(F)c(C(=O)c2c[nH]c3ncc(-c4ccc(OCCCN(C)C)nc4)cc23)c1F please.
≥ 5.00

Report pIC50 for CS(=O)(=O)Nc1ccc(F)c(C(=O)c2c[nH]c3ncc(C#N)cc23)c1F please.
≥ 5.00
